Tested on: MDA-MB-436
Test: Antiproliferative activity against human MDA-MB-436 cells assessed as reduction in cell viability incubated for 72 hrs by MTT assay
Format: functional, cell-based
Conditions: MDA-MB-436, 72 h
READOUT NAME: IC50 (nM)

Some solved cases for reference:
COc1ccc(Cn2cc(CCC(=O)Nc3nnc(CCCCc4nnc(NC(=O)Cc5ccccc5)s4)s3)nn2)cc1OC: 800
N#Cc1ccc(Cn2cc(CCC(=O)Nc3nnc(CCCCc4nnc(NC(=O)Cc5ccccc5)s4)s3)nn2)cc1: 2950
COc1ccc(Cn2cc(CCC(=O)Nc3ccc(CCCCc4nnc(NC(=O)Cc5ccccn5)s4)nn3)nn2)cc1: 630
O=C(CCc1cn(Cc2ccc(Br)cc2)nn1)Nc1nnc(CCCCc2nnc(NC(=O)Cc3ccccc3)s2)s1: 4060
O=C(CCc1cn(Cc2ccc(OC(F)(F)F)cc2)nn1)Nc1ccc(CCCCc2nnc(NC(=O)Cc3ccccn3)s2)nn1: 310

P = O=C(CCc1cn(Cc2ccc(Cl)cc2)nn1)Nc1nnc(CCCCc2nnc(NC(=O)Cc3ccccc3)s2)s1
Q = Cc1cccc(C)c1Cn1cc(CCC(=O)Nc2nnc(CCCCc3nnc(NC(=O)Cc4ccccc4)s3)s2)nn1
-- ask Quick check, higher IC50 between P and Q ? Please reply using the label of the selected record.
-- reply P
(P: 1140 nM, Q: 760 nM)

====

Assay: Distribution coefficient, logD of the compound incubated for 72 hrs by LC-MS based shake-flask method
Type: physicochemical
Conditions: octanol/water
READOUT NAME: logD at 72 h

P = Cc1ccc(Cn2cc(CCC(=O)Nc3ccc(CCCCc4nnc(NC(=O)Cc5ccccn5)s4)nn3)nn2)cc1
Q = O=C(Cc1cccc(OC(F)(F)F)c1)Nc1ccc(CCCCc2nnc(NC(=O)Cc3ccccn3)s2)nn1
-- ask Lower logD at 72 h: P or Q ? Please reply using the label of the selected record.
-- reply P
(P: 1.29, Q: 1.9)

====

System: HCT-116
Experiment: Antiproliferative activity against human HCT116 cells assessed as reduction in cell viability incubated for 72 hrs by MTT assay
Assay type: functional, cell-based
Settings: HCT-116, 72 h
pIC50: −log10 of the molar value.
READOUT NAME: pIC50

COc1ccc(Cn2cc(CCC(=O)Nc3ccc(CCCCc4nnc(NC(=O)Cc5ccccn5)s4)nn3)nn2)cc1: 6.64
COc1ccc(Cn2cc(CCC(=O)Nc3ccc(CCCCc4nnc(NC(=O)Cc5ccccn5)s4)nn3)nn2)cc1OC: 6.42
O=C(CCc1cn(Cc2ccc(F)cc2)nn1)Nc1nnc(CCCCc2nnc(NC(=O)Cc3ccccc3)s2)s1: 5.96

I = O=C(CCc1cn(Cc2ccc([N+](=O)[O-])cc2)nn1)Nc1nnc(CCCCc2nnc(NC(=O)Cc3ccccc3)s2)s1
II = Cc1cccc(C)c1Cn1cc(CCC(=O)Nc2ccc(CCCCc3nnc(NC(=O)Cc4ccccn4)s3)nn2)nn1
-- ask Quick check, higher pIC50 between I and II ? Please reply using the label of the selected record.
-- reply II
(II: 6.57, I: 5.98)

====

System: HCT-116
Assay: Antiproliferative activity against human HCT116 cells assessed as reduction in cell viability incubated for 72 hrs by MTT assay
Assay type: functional, cell-based
Details: HCT-116, 72 h
pIC50: −log10 of the molar value.
READOUT NAME: pIC50

O=C(CCc1cn(Cc2ccccc2)nn1)Nc1nnc(CCCCc2nnc(NC(=O)Cc3ccccc3)s2)s1: 5.32
Cc1ccc(Cn2cc(CCC(=O)Nc3nnc(CCCCc4nnc(NC(=O)Cc5ccccc5)s4)s3)nn2)cc1: 5.80
Cc1ccc(Cn2cc(CCC(=O)Nc3ccc(CCCCc4nnc(NC(=O)Cc5ccccn5)s4)nn3)nn2)c(C)c1: 6.14
O=C(CCc1cn(Cc2ccc(C(F)(F)F)cc2)nn1)Nc1ccc(CCCCc2nnc(NC(=O)Cc3ccccn3)s2)nn1: 6.74
COc1ccc(Cn2cc(CCC(=O)Nc3nnc(CCCCc4nnc(NC(=O)Cc5ccccc5)s4)s3)nn2)cc1OC: 6.35
O=C(Cc1cccc(OC(F)(F)F)c1)Nc1ccc(CCCCc2nnc(NC(=O)Cc3ccccn3)s2)nn1: 7.22

a = COc1ccc(Cn2cc(CCC(=O)Nc3nnc(CCCCc4nnc(NC(=O)Cc5ccccc5)s4)s3)nn2)cc1
b = N#Cc1ccc(Cn2cc(CCC(=O)Nc3nnc(CCCCc4nnc(NC(=O)Cc5ccccc5)s4)s3)nn2)cc1
-- ask Quick check, higher pIC50 between a and b ? Please reply using the label of the selected record.
-- reply a

====

Test system: MDA-MB-436
Test: Antiproliferative activity against human MDA-MB-436 cells assessed as reduction in cell viability incubated for 72 hrs by MTT assay
Assay type: functional, cell-based
Details: MDA-MB-436, 72 h
READOUT NAME: IC50 (nM)

Cc1cccc(C)c1Cn1cc(CCC(=O)Nc2ccc(CCCCc3nnc(NC(=O)Cc4ccccn4)s3)nn2)nn1: 340

P = O=C(CCc1cn(Cc2ccc(C(F)(F)F)cc2)nn1)Nc1ccc(CCCCc2nnc(NC(=O)Cc3ccccn3)s2)nn1
Q = COc1ccc(Cn2cc(CCC(=O)Nc3ccc(CCCCc4nnc(NC(=O)Cc5ccccn5)s4)nn3)nn2)cc1OC
-- ask Quick check, higher IC50 between P and Q ? Please reply using the label of the selected record.
-- reply Q
(Q: 400 nM, P: 210 nM)

====

Biological target: Glutaminase kidney isoform, mitochondrial (Homo sapiens, UniProt O94925)
Sequence (O94925 whole entry, canonical isoform): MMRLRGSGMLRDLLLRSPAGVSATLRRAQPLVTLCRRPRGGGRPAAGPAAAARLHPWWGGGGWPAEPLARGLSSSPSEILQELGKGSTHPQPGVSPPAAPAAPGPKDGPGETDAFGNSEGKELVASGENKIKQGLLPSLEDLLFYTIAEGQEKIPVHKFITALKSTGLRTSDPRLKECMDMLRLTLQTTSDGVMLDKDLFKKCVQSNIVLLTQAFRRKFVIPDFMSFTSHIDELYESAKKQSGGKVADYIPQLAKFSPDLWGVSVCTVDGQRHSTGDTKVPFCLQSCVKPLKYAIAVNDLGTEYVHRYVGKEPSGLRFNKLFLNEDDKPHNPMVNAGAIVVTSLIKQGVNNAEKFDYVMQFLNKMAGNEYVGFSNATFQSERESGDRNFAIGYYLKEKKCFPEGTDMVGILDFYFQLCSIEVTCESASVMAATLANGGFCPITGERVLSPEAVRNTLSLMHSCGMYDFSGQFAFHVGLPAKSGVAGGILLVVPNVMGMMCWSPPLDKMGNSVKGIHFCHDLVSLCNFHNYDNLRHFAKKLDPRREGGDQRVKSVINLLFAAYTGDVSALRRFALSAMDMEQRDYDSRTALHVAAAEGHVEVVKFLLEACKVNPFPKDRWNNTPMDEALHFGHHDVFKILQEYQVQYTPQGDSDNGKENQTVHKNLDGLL
Test: Inhibition of human GLS1 expressed in Escherichia coli strain BL21 (DE3)pLysS pre-incubated for 10 mins before glutamine addition and measured after 60 mins by bovine liver glutamate dehydrogenase based coupled enzyme assay
pIC50: −log10 of the molar value.
READOUT NAME: pIC50

Some solved cases for reference:
O=C(CCc1cn(Cc2ccccc2)nn1)Nc1nnc(CCCCc2nnc(NC(=O)Cc3ccccc3)s2)s1: 6.05
O=C(CCc1cn(Cc2ccc(Br)cc2)nn1)Nc1nnc(CCCCc2nnc(NC(=O)Cc3ccccc3)s2)s1: 6.01

I = O=C(CCc1cn(Cc2ccc(F)cc2)nn1)Nc1nnc(CCCCc2nnc(NC(=O)Cc3ccccc3)s2)s1
II = COc1ccc(Cn2cc(CCC(=O)Nc3nnc(CCCCc4nnc(NC(=O)Cc5ccccc5)s4)s3)nn2)cc1OC
-- ask Lower pIC50: I or II ? Please reply using the label of the selected record.
-- reply I

====

Target: Glutaminase kidney isoform, mitochondrial (Homo sapiens, UniProt O94925)
Experiment: Inhibition of N-[2-[(3',6'-dihydroxy-1-oxo-spiro[isobenzofuran-3,9'-xanthene]-5-yl)carbamothioylamino]ethyl]-N'-[6-[4-[5-[[2-(2-pyridyl)acetyl]amino]-1,3,4-thiadiazol-2-yl]butyl]pyridazin-3-yl]pentanediamide binding to human GLS1 expressed in Escherichia coli strain BL21 (DE3)pLysS by fluorescence polarization binding assay
pIC50: −log10 of the molar value.
READOUT NAME: pIC50

Some solved cases for reference:
COc1ccc(Cn2cc(CCC(=O)Nc3ccc(CCCCc4nnc(NC(=O)Cc5ccccn5)s4)nn3)nn2)cc1: 6.72
N#Cc1ccc(Cn2cc(CCC(=O)Nc3nnc(CCCCc4nnc(NC(=O)Cc5ccccc5)s4)s3)nn2)cc1: 6.03
O=C(CCc1cn(Cc2ccc(F)cc2)nn1)Nc1nnc(CCCCc2nnc(NC(=O)Cc3ccccc3)s2)s1: 5.91
COc1ccc(Cn2cc(CCC(=O)Nc3nnc(CCCCc4nnc(NC(=O)Cc5ccccc5)s4)s3)nn2)cc1OC: 6.07
Cc1ccc(Cn2cc(CCC(=O)Nc3ccc(CCCCc4nnc(NC(=O)Cc5ccccn5)s4)nn3)nn2)c(C)c1: 6.68
Cc1cccc(C)c1Cn1cc(CCC(=O)Nc2nnc(CCCCc3nnc(NC(=O)Cc4ccccc4)s3)s2)nn1: 6.11

a = O=C(CCc1cn(Cc2ccc([N+](=O)[O-])cc2)nn1)Nc1nnc(CCCCc2nnc(NC(=O)Cc3ccccc3)s2)s1
b = COc1ccc(Cn2cc(CCC(=O)Nc3nnc(CCCCc4nnc(NC(=O)Cc5ccccc5)s4)s3)nn2)cc1
-- ask Lower pIC50: a or b ? Please reply using the label of the selected record.
-- reply a

====

Target: Glutaminase kidney isoform, mitochondrial (Homo sapiens, UniProt O94925)
Assay: Inhibition of human GLS1 expressed in Escherichia coli strain BL21 (DE3)pLysS pre-incubated for 10 mins before glutamine addition and measured after 60 mins by bovine liver glutamate dehydrogenase based coupled enzyme assay
READOUT NAME: IC50 (nM)

O=C(CCc1cn(Cc2ccc(OC(F)(F)F)cc2)nn1)Nc1ccc(CCCCc2nnc(NC(=O)Cc3ccccn3)s2)nn1: 300

1 = COc1ccc(Cn2cc(CCC(=O)Nc3ccc(CCCCc4nnc(NC(=O)Cc5ccccn5)s4)nn3)nn2)cc1OC
2 = COc1ccc(Cn2cc(CCC(=O)Nc3nnc(CCCCc4nnc(NC(=O)Cc5ccccc5)s4)s3)nn2)cc1
3 = O=C(CCc1cn(Cc2ccc(C(F)(F)F)cc2)nn1)Nc1ccc(CCCCc2nnc(NC(=O)Cc3ccccn3)s2)nn1
4 = Cc1ccc(Cn2cc(CCC(=O)Nc3ccc(CCCCc4nnc(NC(=O)Cc5ccccn5)s4)nn3)nn2)cc1
5 = Cc1ccc(Cn2cc(CCC(=O)Nc3ccc(CCCCc4nnc(NC(=O)Cc5ccccn5)s4)nn3)nn2)c(C)c1
-- ask Let's sort these by IC50, smallest first. Go ahead? Record the ranking as a list of labels in the requested order.
-- reply 4, 3, 5, 1, 2
(4: 27 nM, 3: 44 nM, 5: 110 nM, 1: 330 nM, 2: 510 nM)
